Ref: patent US5681925A

Tested on: human platelets
Settings: read-out: IC50 Thrombin; human PRP, thrombin-induced
metricName: pIC50
Notebook: values listed as pIC50 are -log10 of the concentration (mol/L).

Record fPRPGCGRGD(Nle)PCGDYEPIPEEAYD [Peptide 4, reference compound] , field pIC50: 6.39

----------
Tested on: human platelets
Conditions: 3 h
metricName: pIC50
Scale: negative log10 of molar concentration, which is what pIC50 denotes.

Measured pIC50, CN[C@H](Cc1ccccc1)C(=O)N1CCC[C@H]1C(=O)N[C@@H](CCCNC(=N)N)C(=O)O [Peptide 2d, (CH3)fPR, reference compound] : 6.70
